# Tested on: bloodstream form T. brucei Lister 427
# Protocol text: ATP–bioluminescence-based bloodstream form T. brucei cell viability assay
# Condition notes: Trypanosoma brucei, 48 h, read-out: Tb427 EC50
Readout: EC50 (µM)
Could you give me the number in µM? Just the number is fine.

Sample records with EC50:
>  <Compound>
Cc1cc(Nc2cc(F)cc(Cl)c2)nc(N)n1 [Compound 61]

>  <System tested>
bloodstream form T. brucei Lister 427

>  <Unit descriptor>
µM

>  <EC50>
17

$$$$
>  <Compound>
Cc1cc(Nc2cc(Cl)cc(-c3cc(C(F)(F)F)cc(C(F)(F)F)c3)c2)nc(N)n1 [Compound 106]

>  <System tested>
bloodstream form T. brucei Lister 427

>  <Unit descriptor>
µM

>  <EC50>
0.53

$$$$
>  <Compound>
Cc1cc(Nc2cc(Cl)c(O)c(Cl)c2)nc(N)n1 [Compound 67]

>  <System tested>
bloodstream form T. brucei Lister 427

>  <Unit descriptor>
µM

>  <EC50>
13

$$$$

We now examine a further compound.
Name the reported EC50 value associated with the compound Cc1cc(Nc2cc(Cl)c(Oc3ccccc3)c(Cl)c2)nc(N)n1 [Compound 66] 1.1

###

# Tested on: bloodstream form T. brucei Lister 427
# Protocol text: ATP–bioluminescence-based bloodstream form T. brucei cell viability assay
# Condition notes: Trypanosoma brucei, 48 h, read-out: Tb427 EC50
Readout: pEC50
pEC50 (log units): -log10 of the concentration in mol/L.

>  <Smiles structure>
Cc1cc(Nc2cc(Cl)cc(Br)c2)nc(N)n1

>  <System tested>
bloodstream form T. brucei Lister 427

>  <pEC50>
5.33

$$$$

Name the reported pEC50 value associated with the compound `Cc1cc(Nc2cc(Cl)cc(-c3ccc4c(c3)OCO4)c2)nc(N)n1` 5.64

Name the reported pEC50 value associated with the compound `Nc1nc(Nc2cc(Cl)cc(Cl)c2)cc(N2CCOCC2)n1` 4.89

Name the reported pEC50 value associated with the compound `Cc1cc(Nc2cc(Cl)cc(C(F)(F)F)c2)nc(N)n1` 4.89

###

# Tested on: bloodstream form T. brucei Lister 427
# Protocol text: ATP–bioluminescence-based bloodstream form T. brucei cell viability assay
# Condition notes: Trypanosoma brucei, 48 h, read-out: Tb427 EC50
Readout: log10 EC50 (log10 of the value in µM)
Response schema: value (number) is log10 of EC50 in units of µM.

Sample records with log10 EC50:
>  <Smiles structure>
Nc1cc(Nc2cc(Cl)cc(Cl)c2)nc(N)n1

>  <log10 EC50>
1.15

$$$$
>  <Smiles structure>
CCc1ccc(Nc2cc(C)nc(N)n2)cc1

>  <log10 EC50>
1.28

$$$$
>  <Smiles structure>
Cc1cc(Nc2cc(C(=O)Nc3cc(Cl)cc(Cl)c3)cc(C(=O)Nc3cc(Cl)cc(Cl)c3)c2)nc(N)n1

>  <log10 EC50>
0.30

$$$$
>  <Smiles structure>
Cc1cc(Nc2cc(Cl)cc(Cl)c2)nc(N)n1

>  <log10 EC50>
0.75

$$$$
>  <Smiles structure>
Cc1cc(Nc2cc(Cl)c(Cl)c(Cl)c2)nc(N)n1

>  <log10 EC50>
0.65

$$$$

Name the reported log10 EC50 value associated with the molecule `Cc1cc(Nc2cccc(Cl)c2)nc(N)n1` 1.62

Name the reported log10 EC50 value associated with the molecule `CNc1nc(C)cc(Nc2cc(Cl)cc(Cl)c2)n1` 0.43

Name the reported log10 EC50 value associated with the molecule `Cc1cc(Nc2cc(Cl)cc(-c3ccc(Cl)cc3)c2)nc(N)n1` 0.34

Name the reported log10 EC50 value associated with the molecule `CCCCOc1cc(Br)cc(Nc2cc(C)nc(N)n2)c1` 0.28

Name the reported log10 EC50 value associated with the molecule `Cc1cc(Nc2cccc(S(F)(F)(F)(F)F)c2)nc(N)n1` 1.15

Name the reported log10 EC50 value associated with the molecule `Nc1ccnc(Nc2cc(Cl)cc(Cl)c2)c1` 1.58

Name the reported log10 EC50 value associated with the molecule `Nc1nc(Nc2cc(Cl)cc(Cl)c2)cc(-c2ccccc2)n1` 0.86

Name the reported log10 EC50 value associated with the molecule `Cc1cc(Nc2cc(Cl)cc(Cl)c2)ncn1` 1.43
